- method-summary: probe aNog binding to arrayed compounds – biochemical, biotinylated probe, 635/667 nm fluorescence, primary screen (AID 1115);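 further: probe is biotinylated aNog protein used at 0.15 µg/mL for 1 h at 4 C; z-score combines 667 nm fluorescence of each spot with its signal to noise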
- experimental-setup: small-molecule microarray, higher = more signal
Exercise: for every item that follows, state its recorded composite z-score.
Numbers only.

Below, each entry is followed by its recorded composite z-score result.
O=C1OCCC=C[C@H]2OC34C=CCN(Cn5nnc6ccccc65)C(=O)[C@H]3N(CCCO)C(=O)[C@@H]4C12 (stereo not given in full)
-0.527
COC(=O)C1(CC(C)C)C=C2C(=C(c3ccccc3)C(=O)C2C)CN1 (stereo not given)
0.689
COC(=O)[C@@H]1N=C(c2ccc(OCCCO)cc2)O[C@@H]1c1ccccc1
-0.59
CCCC=C(CCC)[C@@H](NS(=O)(=O)CC12CCC(CC1=O)C2(C)C)c1ccc(C(=O)OC)cc1 (stereo not given in full)
-0.289

[in] I am curious: what composite z-score value has been reported for CC[C@@H]1C=C(C(=O)O)[C@H](c2ccc(C#N)cc2)N1S(=O)(=O)c1ccc(C)cc1 ?
[out] 0.598
